Give measured PBM E-score for each item. Keep answers brief.
target: Ste12 (UniProt P13574); test: PBM E-score (8-mer binding enrichment) (E-score (-0.5 to 0.5)); higher = stronger / more preferred TF binding; details: protein concentration: 200 nM; construct: GST-DNA-binding domain
Sequence (P13574 whole entry, the tested form may be a part): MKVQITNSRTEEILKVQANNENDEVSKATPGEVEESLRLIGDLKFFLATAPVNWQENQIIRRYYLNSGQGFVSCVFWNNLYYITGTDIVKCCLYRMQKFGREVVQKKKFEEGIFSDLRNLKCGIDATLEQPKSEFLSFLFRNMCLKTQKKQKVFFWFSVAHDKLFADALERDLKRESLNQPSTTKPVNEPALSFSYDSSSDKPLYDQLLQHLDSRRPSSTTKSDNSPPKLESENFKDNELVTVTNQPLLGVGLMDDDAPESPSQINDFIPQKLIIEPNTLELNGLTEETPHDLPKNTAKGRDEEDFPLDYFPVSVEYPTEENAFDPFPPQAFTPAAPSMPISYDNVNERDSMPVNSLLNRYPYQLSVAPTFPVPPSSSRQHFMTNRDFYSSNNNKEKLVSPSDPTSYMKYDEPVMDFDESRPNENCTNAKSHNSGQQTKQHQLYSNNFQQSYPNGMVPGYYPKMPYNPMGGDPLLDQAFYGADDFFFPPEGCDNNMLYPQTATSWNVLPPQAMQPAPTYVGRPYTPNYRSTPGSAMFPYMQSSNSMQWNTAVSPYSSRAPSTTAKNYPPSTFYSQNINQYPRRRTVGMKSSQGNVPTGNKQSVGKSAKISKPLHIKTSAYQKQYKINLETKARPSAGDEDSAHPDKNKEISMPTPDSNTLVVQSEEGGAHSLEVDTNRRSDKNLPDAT
In all, about 33,000 sequences were measured (“E-score (-0.5 to 0.5)”: median about -0.01, highest 2% from about 0.26 on). Only a selection was taken, and the highest values are over-represented in it overall.

Asked: Report PBM E-score, nothing else, for this sequence: GTCCAAAA
Given back: 0.123

Asked: Tell me its PBM E-score given ATCAAAAA as the entry.
Given back: 0.316

Asked: Supply reported PBM E-score belonging to this sequence: ATCAAAAT
Given back: 0.192

Asked: Answer with the recorded PBM E-score for the sequence listed here: CACGAAAA
Given back: 0.243

Asked: Name the recorded PBM E-score of the item CACGAAAC in your answer.
Given back: 0.266

Asked: Report PBM E-score, nothing else, for this sequence: AACACGAC
Given back: -0.104

Asked: Please indicate PBM E-score recorded for GCCGAAAC
Given back: 0.178

Asked: Supply reported PBM E-score belonging to this sequence: TGGCCAAA
Given back: 0.0505

Asked: Please report the measured PBM E-score for CTCCAAAA
Given back: 0.183

Asked: Please report the measured PBM E-score for AACGAAAG
Given back: 0.0635

Asked: Report measured PBM E-score; entry is AACGAAAT
Given back: 0.169

====

Would you mind telling me the reported PBM E-score of each entry?
biological target: Ste12 (UniProt P13574); assay: PBM E-score (8-mer binding enrichment) (E-score (-0.5 to 0.5)); higher = stronger / more preferred TF binding; conditions: protein concentration: 200 nM; construct: GST-DNA-binding domain
The full ranking holds about 33,000 sequences; the median of “E-score (-0.5 to 0.5)” is about -0.01, and the highest 2% start at about 0.26. Shown is part of a subset that was picked to be rich in the highest values.
Enter the number alone.

Asked: Give the value of PBM E-score reported for the following: GATAAACA
Given back: 0.096

Asked: Fill in reported PBM E-score for this entry: AATGTTTA
Given back: 0.174

Asked: Give PBM E-score for the following sequence: ACATGAAA
Given back: 0.283

Asked: Recall and state the measured PBM E-score for AAACATGG .
Given back: 0.206

Asked: Indicate its recorded PBM E-score; the sequence in question is AATAATAA
Given back: 0.308

Asked: Supply recorded PBM E-score for AACTTATT here.
Given back: 0.333

Asked: Output PBM E-score of GCGAGCCA
Given back: -0.0412

Asked: Provide only the value of recorded PBM E-score for AACGACCC
Given back: -0.126

Asked: Note PBM E-score for the sequence shown: GGCGGGGA
Given back: 0.407

Asked: Return value of PBM E-score for input TAACATGA , no commentary.
Given back: 0.098

Asked: Query PBM E-score for GCTAACAA
Given back: -0.046

Asked: Supply measured PBM E-score of ACTCCCCG in your reply.
Given back: 0.07

Asked: Provide measured PBM E-score value, entry: AATGTTTG
Given back: 0.0124

Asked: State, in one line, measured PBM E-score of AAATTCTC
Given back: 0.105

Asked: Quote PBM E-score reported for GAGTTGGA please.
Given back: 0.0912

Asked: Tell me measured PBM E-score for ACAGCTCG please.
Given back: -0.157

Asked: Return the recorded PBM E-score value; entry: AAACATGC
Given back: 0.231

Asked: Note PBM E-score for the sequence shown: CCTCCCAA
Given back: -0.136

Asked: Write down PBM E-score measured for item CTGTTACC
Given back: -0.03

Asked: Give the value of PBM E-score reported for the following: CACTTAAC
Given back: -0.121

Asked: Output PBM E-score of AGCGGGGA
Given back: 0.111

Asked: Kindly indicate its recorded PBM E-score. Item: AATAAACC
Given back: 0.269

Asked: Given GGTAACCA , respond with its PBM E-score.
Given back: -0.12

Asked: Provide measured PBM E-score value, entry: GAACTCCC
Given back: 0.0278

Asked: Specify measured PBM E-score for CCGTTACA .
Given back: 0.318

Asked: Note PBM E-score for the sequence shown: CTTAATAC
Given back: 0.207

Asked: # return recorded PBM E-score for entry CCCCCCCG
Given back: -0.257

Asked: Report PBM E-score for AAACATCA
Given back: 0.328

Asked: Report PBM E-score for AATTTAAA
Given back: 0.269

Asked: Identify the reported PBM E-score for the following entry. AATAATAC
Given back: 0.198

Asked: Answer with the recorded PBM E-score of TCATGAAA only.
Given back: 0.27

Asked: Look up PBM E-score of AGCCTCGC and report it.
Given back: -0.155

Asked: Please report the measured PBM E-score for CGATTCGC
Given back: 0.0897

Asked: Note down PBM E-score recorded for TCATGACA
Given back: 0.178

Asked: Name the recorded PBM E-score of the sequence listed here: TGTAACAA
Given back: 0.333

Asked: Tell us which PBM E-score value is on record for GAATTCTC
Given back: 0.262

Asked: Dear colleague, please send me the reported PBM E-score for ACATGAAC when you can.
Given back: 0.0476

Asked: Using known records, supply PBM E-score for ACATGAAG
Given back: 0.091

Asked: Return PBM E-score (reported value) for this sequence: ATTTTTGA
Given back: 0.298

Asked: Given CCTCCCCC , respond with its PBM E-score.
Given back: -0.134

Asked: Supply measured PBM E-score of ACGTTACA in your reply.
Given back: 0.164

Asked: Report PBM E-score for AGCTTGAG
Given back: -0.164

Asked: Give PBM E-score for the following sequence: ATGTTACA
Given back: 0.297

Asked: Give reported PBM E-score value for CATGTTTA
Given back: 0.199

Asked: Specify PBM E-score for GTGTTACA and stop.
Given back: 0.19

Asked: Please list PBM E-score recorded for the sequence AAATCTGC
Given back: 0.0398

Asked: Give the measured PBM E-score for ATGTTACC
Given back: 0.175

Asked: Please list PBM E-score recorded for the sequence AAAGTTTA
Given back: 0.199

Asked: Please indicate PBM E-score recorded for CATAATAA
Given back: 0.136

Asked: Could you please provide reported PBM E-score for ATAGGGCA ? Thanks!
Given back: -0.109

Asked: Note down PBM E-score recorded for AATTTTTA
Given back: 0.283

Asked: Provide PBM E-score value for the following sequence: GGTCCATA
Given back: -0.111

Asked: Given the sequence AATAAACA , write its reported PBM E-score.
Given back: 0.284

Asked: Answer with the recorded PBM E-score of AGAATATA only.
Given back: 0.0722

Asked: Identify the reported PBM E-score for the following entry. AATGCTAG
Given back: -0.181

Asked: Identify measured PBM E-score corresponding to AATGTTAG
Given back: -0.00616

Asked: Supply PBM E-score value. Item: GTGAACGA
Given back: 0.047

Asked: Answer with reported PBM E-score of GCATGAAC
Given back: -0.0143

Asked: Output PBM E-score of AACTTAAA
Given back: 0.186

Asked: For CAGTAGGG , write its PBM E-score.
Given back: -0.176

Asked: Give the value of PBM E-score reported for the following: CATGTTGC
Given back: -0.0677

Asked: Name the recorded PBM E-score of the item ATTAATCC in your answer.
Given back: 0.0655

Asked: Specify measured PBM E-score for GAATCTGA .
Given back: -0.0846

Asked: Check the records and state PBM E-score for GAATTCTA
Given back: 0.107

Asked: Supply recorded PBM E-score for CTGACCGC here.
Given back: 0.123

Asked: Dear colleague, please send me the reported PBM E-score for TCTCTCAA when you can.
Given back: 0.0783

Asked: Give the value of PBM E-score reported for the following: TCTTTTAA
Given back: 0.142

Asked: Look up and state reported PBM E-score for CGTAACAG
Given back: 0.205

Asked: For ACATTTAG , write its PBM E-score.
Given back: -0.0629

Asked: Please indicate PBM E-score recorded for AATTTAAT
Given back: 0.159

Asked: Supply measured PBM E-score of GACGCACC in your reply.
Given back: -0.00732

Asked: Please report PBM E-score for the following sequence: CTCGCAGC
Given back: 0.0324

Asked: Give PBM E-score for the following sequence: CCCGAACA
Given back: 0.128

Asked: Look up PBM E-score of AGTCCATC and report it.
Given back: -0.306

Asked: Tell me its PBM E-score given CACTTATG as the entry.
Given back: 0.00871

Asked: Determine from records and report PBM E-score for AGTAACAA
Given back: 0.0502

Asked: Give PBM E-score for GATGATGC
Given back: -0.125

Asked: Let me know recorded PBM E-score for CGGCTAAG , thanks.
Given back: 0.0459

Asked: Give the reported value of PBM E-score for this record: TCCACAAA
Given back: 0.14

Asked: Output PBM E-score of GAGCGTGA
Given back: -0.0254

Asked: Report measured PBM E-score; entry is CAATTCTC
Given back: 0.00128

Asked: // Input: CGCGGGGA . Output its PBM E-score only.
Given back: 0.333

Asked: Please list PBM E-score recorded for the sequence TCATGAGA
Given back: 0.0861

Asked: Could you please provide reported PBM E-score for GGAACTAC ? Thanks!
Given back: -0.105

Asked: Tell me measured PBM E-score for CAAGTTTC please.
Given back: 0.254

Asked: Indicate its recorded PBM E-score; the sequence in question is CATAAACC
Given back: 0.0477

Asked: Name the recorded PBM E-score of the item CGCGGGAA in your answer.
Given back: 0.161

Asked: Give reported PBM E-score value for TATTTGCA
Given back: 0.0371

Asked: Determine its reported PBM E-score: GGTAACAC
Given back: 0.0298

Asked: Return PBM E-score for the following sequence: TATAAACA
Given back: 0.114

Asked: Answer with the recorded PBM E-score for the sequence listed here: AACTTTCT
Given back: 0.128

Data provenance: the supplement of paper PMC3334620
